meta.source: patent US20100210517A1

# pKd annotations
# Tested System: T1, recombinant mouse VLDLR ectodomain (amino acids 1-798, C-terminal hexahistidine) (mouse, UniProt P98156 28-798)
# T1 construct: range 1-798; Bought from R&D Systems, NS0-expressed; The printed range starts at 1 and so may count a signal peptide; also called rmVLDLR ectodomain; mVLDLR
# T1 sequence (P98156 other isoform, or with tags, fused parts or gaps limits assumed, form in doubt): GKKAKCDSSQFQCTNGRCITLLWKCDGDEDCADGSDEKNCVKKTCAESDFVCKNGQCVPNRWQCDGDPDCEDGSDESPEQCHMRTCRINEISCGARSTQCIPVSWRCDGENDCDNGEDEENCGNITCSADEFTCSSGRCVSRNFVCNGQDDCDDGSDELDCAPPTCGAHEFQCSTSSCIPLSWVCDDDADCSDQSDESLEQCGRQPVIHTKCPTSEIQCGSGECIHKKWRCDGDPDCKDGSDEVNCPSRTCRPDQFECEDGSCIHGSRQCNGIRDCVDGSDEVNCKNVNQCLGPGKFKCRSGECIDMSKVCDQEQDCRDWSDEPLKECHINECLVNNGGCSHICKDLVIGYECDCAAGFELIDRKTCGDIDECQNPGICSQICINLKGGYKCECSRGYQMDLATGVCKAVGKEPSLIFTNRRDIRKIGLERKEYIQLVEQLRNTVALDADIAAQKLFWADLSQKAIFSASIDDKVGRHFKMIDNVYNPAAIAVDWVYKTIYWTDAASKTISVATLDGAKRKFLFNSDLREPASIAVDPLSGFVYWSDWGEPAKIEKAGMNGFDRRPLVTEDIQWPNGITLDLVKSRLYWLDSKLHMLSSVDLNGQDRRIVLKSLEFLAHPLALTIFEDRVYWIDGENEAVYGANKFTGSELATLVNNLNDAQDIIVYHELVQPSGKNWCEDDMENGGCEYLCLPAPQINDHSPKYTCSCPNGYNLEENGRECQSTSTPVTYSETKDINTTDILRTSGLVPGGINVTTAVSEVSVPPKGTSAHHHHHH
# Measurement Notes: solid-phase binding assay, receptor coated on plate, streptavidin-HRP detection, EDTA-subtracted
Keep in mind that pKd stands for -log10 of concentration in molar terms.

[[record]]
binder = "mRAPc (N-terminal biotin-GGSGG; intramolecular disulfide between C241 and C315 (mature RAP numbering), Synthetic; also called mRAPc peptide; monomeric peptide) peptide: CGFREELKHFEAKIEKHNHYQKQLEIAHEKLRHAESVGDGERVSRSREKHALLEGRTKELGYTVKKHLQDLSGGC"
obs_value = 8.30


# input for lookup
Just so you know, measured pKd for tag-free RAP d3 peptide (amino acids 201-319 of mature human RAP, C-terminal cysteine linked to biotin) (ligand, C-terminal cysteine linked to maleimide-PEO2-biotin, Bacterially expressed, from GeneScript; lacks HNEL; also called full-length RAP d3) LDRLRRVSHQGYSTEAEFEEPRVIDLWDLAQSANLTDKELEAFREELKHFEAKIEKHNHYQKQLEIAHEKLRHAESVGDGERVSRSREKHALLEGRTKELGYTVKKHLQDLSGRISRARC came out at 9.00
